# System: CAKI-1
# EXPERIMENTAL PROTOCOL: NCI tumour cell line growth inhibition, 48 h
Calls of active or inactive are those of the source. Rule as the data show it: active = GI50 up to about 1.1 µM and inactive = higher.
API: response.call in T = active, F = inactive

MOLECULE: NCC(=O)OCN1C(=O)C2C3C=CC(C2C1=O)C1C2C(=O)N(COC(=O)CN)C(=O)C2C31 (stereo not given)
GROUP LABEL: F

-- ask For this molecule, state the assay outcome: COc1cccc(C2c3cc4c(cc3OC(N3CCOCC3)C2C)OCO4)c1OC (stereo not given)
-- reply F

-- ask For this molecule, state the assay outcome: O=C1N2Cc3c4ccc5c3CN3C(=O)N6Cc7c(ccc(c7CN1C6(c1ccccc1)C23c1ccccc1)OCCOCCNCCOCCO4)OCCOCCNCCOCCO5 (stereo not given)
-- reply F

-- ask For this molecule, state the assay outcome: "COc1ccc2nc3cccc([N+](=O)[O-])c3c(NCCN(C)C)c2c1"
-- reply T

-- ask For this molecule, state the assay outcome: "CC(=O)NC1(c2cc3ccccc3s2)CCCCCC1"
-- reply F

-- ask For this molecule, state the assay outcome: Cc1ccc(NC(=O)C(=O)C(C(=O)c2ccc3ccccc3c2)C2OC(=O)c3ccccc32)cc1C (stereo not given)
-- reply F

Entry source: ChEMBL document CHEMBL1201862
